FYI, the data here is from patent US9409892B2.

Catalogue of IC50 readings, one per entry.
- targetDesc: PHD2 (EGLN1) (Homo sapiens (Human))
- Sequence (Q9GZT9 whole entry): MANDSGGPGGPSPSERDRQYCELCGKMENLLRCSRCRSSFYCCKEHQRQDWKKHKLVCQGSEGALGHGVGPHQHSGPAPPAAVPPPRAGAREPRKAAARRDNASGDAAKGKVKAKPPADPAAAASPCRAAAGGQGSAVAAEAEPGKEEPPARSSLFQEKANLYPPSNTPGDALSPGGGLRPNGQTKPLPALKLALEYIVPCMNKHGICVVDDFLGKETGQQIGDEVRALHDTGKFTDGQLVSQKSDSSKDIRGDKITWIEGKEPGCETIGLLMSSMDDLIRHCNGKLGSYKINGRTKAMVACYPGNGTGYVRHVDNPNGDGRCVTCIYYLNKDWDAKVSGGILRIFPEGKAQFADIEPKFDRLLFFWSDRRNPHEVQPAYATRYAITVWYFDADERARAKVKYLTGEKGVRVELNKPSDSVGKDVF
- assayComment: HIF-PH assay (14CO2 capture), PHD2 enzyme inhibition
- Assay type: biochemical
- conditionNotes: Table 1; individual measurement; read-out: IC50 (μM) PHD2
Include the unit right after the number.

Some solved cases for reference:
{"molecule": "O=C(O)CCNC(=O)c1nc(C(F)(F)F)c2cc(Oc3ccccc3)ccc2c1O", "IC50": "101 µM"}
{"molecule": "CC(C)(C)OC(=O)N1CCC(CC(=O)O)(NC(=O)c2nc(C#N)c3cc(Oc4ccccc4)ccc3c2O)CC1", "IC50": "158 µM"}
{"molecule": "CC(C)(CNC(=O)c1nc(C#N)c2cc(Oc3ccc(F)cc3)ccc2c1O)C(=O)O", "IC50": "4.65 µM"}
{"molecule": "O=C(NCC[C@H](O)C(=O)O)c1ncc2cc(Oc3ccccc3)ccc2c1O", "IC50": "52.7 µM"}
{"molecule": "CC(C)(CNC(=O)c1nc(C#N)c2cc(Cc3ccccc3)ccc2c1O)C(=O)O", "IC50": "18.6 µM"}
{"molecule": "CCc1ccccc1Oc1ccc2c(O)c(C(=O)NCC(C)(C)C(=O)O)nc(C#N)c2c1", "IC50": "3.06 µM"}
{"molecule": "N#Cc1nc(C(=O)NC[C@@H](O)CC(=O)O)c(O)c2ccc(Oc3ccccc3)cc12", "IC50": "2.83 µM"}

Note: attention shifts to another entry.
For PHD2 (EGLN1) (Homo sapiens (Human)), give IC50 of the listed molecule: O=C(NCC(C(=O)O)C1CC1)c1ncc2cc(Oc3ccccc3)ccc2c1O (centres unmarked)
100 µM

* * *

- targetDesc: PHD1 (EGLN2) (Homo sapiens (Human), UniProt Q96KS0)
- Sequence (Q96KS0 whole entry): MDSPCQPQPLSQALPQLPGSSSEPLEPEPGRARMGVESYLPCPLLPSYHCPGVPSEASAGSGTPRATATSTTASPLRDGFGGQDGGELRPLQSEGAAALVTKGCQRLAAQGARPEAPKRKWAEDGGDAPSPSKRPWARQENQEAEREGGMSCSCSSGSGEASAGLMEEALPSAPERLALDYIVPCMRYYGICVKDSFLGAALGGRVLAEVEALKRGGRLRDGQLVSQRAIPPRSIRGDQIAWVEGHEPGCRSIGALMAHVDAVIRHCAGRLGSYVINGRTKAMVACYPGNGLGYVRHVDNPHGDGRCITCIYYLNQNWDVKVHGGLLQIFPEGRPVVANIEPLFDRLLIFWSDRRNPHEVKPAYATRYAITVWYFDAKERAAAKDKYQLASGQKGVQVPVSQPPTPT
- assayComment: HIF-PH assay (14CO2 capture), PHD1 enzyme inhibition
- Format: biochemical
- conditionNotes: Table 1; individual measurement; read-out: IC50 (μM) PHD1
Catalogue of IC50 readings, one per entry.
Numeric only. Scale: µM

{"compound": "CC(C)(CNC(=O)c1nc(C#N)c2cc(NC(=O)Nc3ccccc3)ccc2c1O)C(=O)O", "IC50 (µM)": 2.81}
{"compound": "CCCC(CCC)(CNC(=O)c1nc(C#N)c2cc(Oc3ccccc3)ccc2c1O)C(=O)O", "IC50 (µM)": 4.43}
{"compound": "O=C(O)CCCNC(=O)c1ncc2cc(Oc3ccccc3)ccc2c1O", "IC50 (µM)": 1.17}
{"compound": "N#Cc1nc(C(=O)NCC2(C(=O)O)CCC2)c(O)c2ccc(Sc3ccccc3)cc12", "IC50 (µM)": 0.11}
{"compound": "O=C(O)CCCNC(=O)c1ncc2cc(NC(=O)Nc3ccccc3)ccc2c1O", "IC50 (µM)": 12.6}
{"compound": "CC(C)(CC(=O)O)NC(=O)c1ncc2cc(Oc3ccccc3)ccc2c1O", "IC50 (µM)": 8.19}
{"compound": "N#Cc1nc(C(=O)NCC(C(=O)O)C2CC2)c(O)c2ccc(Oc3ccc(F)cc3)cc12 (centres unmarked)", "IC50 (µM)": 0.95}

Read off the recorded IC50 for "O=C(O)CCCNC(=O)c1ncc2ccc(Oc3ccccc3)cc2c1O"
21.2

* * *

- targetDesc: PHD1 (EGLN2) (Homo sapiens (Human), UniProt Q96KS0)
- assayComment: HIF-PH assay (14CO2 capture), PHD1 enzyme inhibition
- Assay type: biochemical
- conditionNotes: Table 1; ratio of the IC50 of the compound for each enzyme
Catalogue of PHD2/PHD1 readings, one per entry.
In your answer, state the number alone without any accompanying words.

{"substanceSmiles": "O=C(O)CCCCNC(=O)c1ncc2cc(Sc3ccccc3)ccc2c1O", "PHD2/PHD1": 6}

For PHD1 (EGLN2) (Homo sapiens (Human), UniProt Q96KS0), give PHD2/PHD1 of the listed compound: "N#Cc1c2cc(Oc3ccccc3)ccc2c(O)c(C(=O)NCCCC(=O)O)[n+]1[O-]"
13

For PHD1 (EGLN2) (Homo sapiens (Human), UniProt Q96KS0), give PHD2/PHD1 of the listed compound: "N#Cc1nc(C(=O)N[C@@H](CC(=O)O)c2ccccc2F)c(O)c2ccc(Oc3ccccc3)cc12"
12

For PHD1 (EGLN2) (Homo sapiens (Human), UniProt Q96KS0), give PHD2/PHD1 of the listed compound: "N#Cc1nc(C(=O)NCC2(C(=O)O)CCC2)c(O)c2ccc(Oc3c(F)cccc3F)cc12"
8
